# key: entry, value: Kd
- target desc: T1, human IL-36γ, truncated (human, UniProt Q9NZH8 18-169)
- T1 construct: Bought from R&D Systems (cat 6835-IL); also called human IL-36 gamma; hIL-36gamma
- T1 sequence: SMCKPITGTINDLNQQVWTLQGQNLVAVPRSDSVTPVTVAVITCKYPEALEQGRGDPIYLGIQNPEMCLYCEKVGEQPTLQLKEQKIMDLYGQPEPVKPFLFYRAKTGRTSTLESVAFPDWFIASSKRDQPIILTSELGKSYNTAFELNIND
- method summary: SPR, Biacore, 1:1 Langmuir fit
Numbers only; they are read as nM.

Please review the following examples before continuing.
binder | Kd [nM]
144D464A LV11re HV10b (antibody, V domains shown, Humanized) VH: QVQLVQSGAEVKKPGASVKVSCKASGFNIKDTYIHWVRQAPGQGLEWIGRIDPAIGTTRYDPKFQGRATITTDTSTSTVYLEFSSLRSEDTAVYYCARLHYFGNNFFFDYWGQGTLVTVSS VL: QAVVTQEPSLTVSPGGTVTLTCRSSSGAVTTSNYANWVQEKPGQLFAGLIGGTNDRAPGVPARFSGSLLGGKAALTISGAQPEDEAIYFCALWFSNHWVFGGGTKLTVL | 1.21
144L249B LV9 HV10b (antibody, V domains shown, Humanized) VH: QVQLVQSGAEVKKPGASVKVSCKASGFNIKDTYIYWVRQAPGQGLEWIGRIDPAIGTTRYDPKFQGKATLTTDTSTSTAYLELSSLRSEDTAVYYCARYDYSGSSFYFDYWGQGTLVTVSS VL: QAVVTQEPSLTVSPGGTVTLTCRSSTGAVTTSNYANWVQEKPGQLFTGLIGGTNDRAPGVPARFSGSLLGGKAALTLSGAQPEDEADYFCALWYSNHLVFGGGTKLTVL | 0.942

Next binder, please.
Prompt: Look up Kd: 144D464A LV10re HV10b (antibody, V domains shown, Humanized) VH: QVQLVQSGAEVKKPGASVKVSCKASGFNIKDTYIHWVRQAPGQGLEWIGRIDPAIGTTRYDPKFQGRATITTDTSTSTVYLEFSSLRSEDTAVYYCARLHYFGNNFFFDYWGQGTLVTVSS VL: QAVVTQEPSLTVSPGGTVTLTCRSSSGAVTTSNYANWVQEKPGQLFAGLIGGTNDRAPGVPARFSGSLLGGKAALTLSGAQPEDEAIYFCALWFSNHWVFGGGTKLTVL
Completion: 1.2
